Measured Activity of individual entries
test: Inhibition of protein biosynthesis in mouse Krebs cells assessed as renilla luciferase activity at 2 uM after 1 hr by translation assay relative to control; format: functional
Note: the reply should be a number with no unit written.

Known results for molecules:
MOLECULE	Activity
CC[C@@H](C)C(=O)O[C@H]1C(=O)O[C@@H]2C[C@H]3C(C)=CC(=O)[C@@H](O)[C@]3(C)[C@H]3[C@@H](OC(C)=O)[C@H](OC(C)=O)[C@]4(C)OC[C@]32[C@@H]14	0.87
CC[C@@H](C)C(=O)O[C@H]1C(=O)O[C@@H]2C[C@H]3C(C)=CC(=O)[C@@H](O)[C@]3(C)[C@H]3[C@@H](O)[C@H](O)[C@]4(C)OC[C@]32[C@@H]14 [SIMALIKALACTONE D]	0.09
CC[C@@H](C)C(=O)O[C@H]1C(=O)O[C@@H]2C[C@H]3C(C)=C[C@H](O)[C@@H](O)[C@]3(C)[C@H]3[C@@H](O)[C@@H](O)[C@]4(C)OC[C@]32[C@@H]14	0.57

Query molecule follows.
Request: Return reported Activity; argument: CC[C@@H](C)C(=O)O[C@H]1C(=O)O[C@@H]2C[C@H]3C(C)=C[C@H](OC(C)=O)[C@@H](OC(C)=O)[C@]3(C)[C@H]3[C@@H](O)[C@@H](OC(C)=O)[C@]4(C)OC[C@]32[C@@H]14
Response: 1.14

Reference source: ChEMBL document CHEMBL1151198
